- methodDescription: Cytotoxicity: viability of M17 cells
- studyConditions: human, M17 neuroblastoma cells, Cytotoxicity (% viable at 1 and 10 uM), test compound 1 uM
measurementType: viability at 1 uM
Note: state the figure and append the unit.

stdin: In one line, give reported viability at 1 uM of the entry Br.CN1CCCC1Cn1cnc2c(O)c(Cl)cc(Cl)c2c1=O (centres unmarked) .
stdout: 107%

stdin: In one line, give reported viability at 1 uM of the entry `O=c1c2c(Cl)cc(I)c(O)c2ncn1-c1cccnc1` .
stdout: 97.4%

stdin: In one line, give reported viability at 1 uM of the entry `O=c1c2c(Cl)cc(Cl)c(O)c2ncn1-c1ccc2[nH]ncc2c1` .
stdout: 96.2%

stdin: In one line, give reported viability at 1 uM of the entry Br.CCC(C)n1cnc2c(O)c(Cl)cc(Cl)c2c1=O (centres unmarked) [drawing 185] .
stdout: 94.3%

stdin: In one line, give reported viability at 1 uM of the entry `CCCCCn1cnc2c(O)c(I)ccc2c1=O` .
stdout: 86.3%

stdin: In one line, give reported viability at 1 uM of the entry `CCCCc1cnc2c(O)c(-c3ccc(F)cc3)ccn2c1=O` .
stdout: 101%

stdin: In one line, give reported viability at 1 uM of the entry `CCn1cnc2c(O)c(I)cc(Cl)c2c1=O` .
stdout: 101%

stdin: In one line, give reported viability at 1 uM of the entry `O=c1c2c(Cl)cc(Cl)c(O)c2ncn1Cc1cccnc1` .
stdout: 106%

stdin: In one line, give reported viability at 1 uM of the entry `O=C(NCc1ccc(F)cc1)c1cnc2c(O)c(I)ccn2c1=O` .
stdout: 89.6%

stdin: In one line, give reported viability at 1 uM of the entry `O=C(O)CCCn1cnc2c(O)c(Cl)cc(Cl)c2c1=O` .
stdout: 110%

stdin: In one line, give reported viability at 1 uM of the entry `CCn1cnc2c(O)c(I)ccc2c1=S` .
stdout: 85.7%

stdin: In one line, give reported viability at 1 uM of the entry `CN(C)Cc1ccc2c(Cl)cc(I)c(O)c2n1` .
stdout: 97.9%

stdin: In one line, give reported viability at 1 uM of the entry `O=C(Cn1cnc2c(O)cccc2c1=O)Nc1ccccn1` .
stdout: 110%

stdin: In one line, give reported viability at 1 uM of the entry `Cc1nc2ccccc2c(=O)n1O` .
stdout: 101%

stdin: In one line, give reported viability at 1 uM of the entry `O=c1c2c(Cl)cc(Cl)c(O)c2ncn1CCN1Cc2ccccc2C1` .
stdout: 103%

stdin: In one line, give reported viability at 1 uM of the entry `CCN(CC)C(=O)Cn1cnc2c(O)c(I)ccc2c1=O` .
stdout: 92.2%

stdin: In one line, give reported viability at 1 uM of the entry `O=c1c2cccc(O)c2ncn1Cc1nc2ccccc2[nH]1` .
stdout: 107%

stdin: In one line, give reported viability at 1 uM of the entry `O=C(Nc1cnc2ccccc2c1)c1cnc2c(O)cccn2c1=O` .
stdout: 102%

stdin: In one line, give reported viability at 1 uM of the entry `O=c1c2c(Cl)cc(Cl)c(O)c2ncn1CCNC1CC1` .
stdout: 98.8%

stdin: In one line, give reported viability at 1 uM of the entry `O=C(O)Cn1cnc2c(O)c(Cl)cc(Cl)c2c1=O` .
stdout: 105%

stdin: In one line, give reported viability at 1 uM of the entry `CCCCc1cnc2c(O)c(-c3cccc(OC)c3)ccn2c1=O` .
stdout: 94.5%

stdin: In one line, give reported viability at 1 uM of the entry `CCNC(=O)c1cnc2c(O)c(CC)ncc2c1.Cl` .
stdout: 84.4%

stdin: In one line, give reported viability at 1 uM of the entry `CCc1cnc2c(O)c(I)ccn2c1=O` .
stdout: 82.5%

stdin: In one line, give reported viability at 1 uM of the entry `CCCCc1cnc2c(O)c(I)ccn2c1=O` .
stdout: 102%

stdin: In one line, give reported viability at 1 uM of the entry `CCCc1cnc2c(O)cccn2c1=O` .
stdout: 79.1%

stdin: In one line, give reported viability at 1 uM of the entry `Cc1noc(C)c1-n1cnc2c(O)c(Cl)cc(Cl)c2c1=O` .
stdout: 106%

----------
- methodDescription: Cytotoxicity: viability of M17 cells
- studyConditions: human, M17 neuroblastoma cells, Cytotoxicity (% viable at 1 and 10 uM), test compound 1 uM
Please respond with reported viability at 1 uM for every item in the list.
API: value field is a number in %; no unit string.

stdin: In one line, give reported viability at 1 uM of the entry `O=c1c2c(Cl)cc(Cl)c(O)c2ncn1CC1CC1` .
stdout: 96.2

stdin: In one line, give reported viability at 1 uM of the entry `O=c1c2c(Cl)cc(Cl)c(O)c2ncn1-c1ccc(Cl)cn1` .
stdout: 86.9

stdin: In one line, give reported viability at 1 uM of the entry `O=c1c2cccc(O)c2ncn1-c1ccc(Cl)cn1` .
stdout: 107

stdin: In one line, give reported viability at 1 uM of the entry `Nn1cnc2c(O)c(Cl)cc(Cl)c2c1=O` .
stdout: 113

stdin: In one line, give reported viability at 1 uM of the entry CN(C)Cc1ccc2c(Cl)cc(Cl)c(O)c2n1.Cl [drawing 119] .
stdout: 94

stdin: In one line, give reported viability at 1 uM of the entry `O=c1c2cccc(O)c2ncn1Cc1ccccc1` .
stdout: 98.5

stdin: In one line, give reported viability at 1 uM of the entry `O=C(NCc1ccccc1)c1cnc2c(O)cccn2c1=O` .
stdout: 92.7

stdin: In one line, give reported viability at 1 uM of the entry `O=c1c2c(Cl)cc(Cl)c(O)c2ncn1CCN1CCCC1` .
stdout: 104

stdin: In one line, give reported viability at 1 uM of the entry `CC(C)c1cnc2c(O)c(I)ccn2c1=O` .
stdout: 96.7

stdin: In one line, give reported viability at 1 uM of the entry `CCCCNC(=O)c1cnc2c(O)cccn2c1=O` .
stdout: 98.8

stdin: In one line, give reported viability at 1 uM of the entry `CCCCc1cnc2c(O)c(-c3ccc(OC)cc3)ccn2c1=O` .
stdout: 79.2

stdin: In one line, give reported viability at 1 uM of the entry `O=C1c2ccccc2C(=O)N1CCn1cnc2c(O)c(Cl)cc(Cl)c2c1=O` .
stdout: 104

----------
Please respond with reported B:P Ratio for every item in the list.
- methodDescription: Blood brain barrier penetration (brain:plasma ratio after IV dose)
- Format: in vivo
- studyConditions: 60 min post dose, nominal dose 5 mg/kg, male Swiss Outbred mice
Reply with the value as a number alone.

stdin: In one line, give reported B:P Ratio of the entry CN(C)Cc1ccc2c(Cl)cc(Cl)c(O)c2n1.Cl [drawing 119] .
stdout: 9.45

stdin: In one line, give reported B:P Ratio of the entry `Cn1cnc(CCNC(=O)c2ccc3c(Cl)cc(Cl)c(O)c3n2)c1` .
stdout: 0.20

----------
- methodDescription: In vivo toxicity, visual observations
- studyConditions: 30 mg/kg, number of days
measurementType: Toxicity at 30 mg/kg

stdin: In one line, give reported Toxicity at 30 mg/kg of the entry `Nc1cc(Cn2cnc3c(O)c(Cl)cc(Cl)c3c2=O)ccn1` .
stdout: 10 days, 1 of 4 deaths

stdin: In one line, give reported Toxicity at 30 mg/kg of the entry `O=c1c2cccc(O)c2ncn1-c1ccc(Cl)cn1` .
stdout: 10 days, none

stdin: In one line, give reported Toxicity at 30 mg/kg of the entry `O=c1c2c(Cl)cc(Cl)c(O)c2ncn1Cc1nc2ccccc2s1` .
stdout: 10 days, none

stdin: In one line, give reported Toxicity at 30 mg/kg of the entry `O=c1c2c(Cl)cc(Cl)c(O)c2ncn1Nc1ccc(F)cc1F` .
stdout: 10 days, none

stdin: In one line, give reported Toxicity at 30 mg/kg of the entry `Br.CNCc1nc2c(O)c(Cl)cc(Cl)c2c(=O)n1C` .
stdout: 10 days, none

stdin: In one line, give reported Toxicity at 30 mg/kg of the entry CN1CCCC1CCn1cnc2c(O)c(Cl)cc(Cl)c2c1=O (stereo not drawn) .
stdout: 10 days, none

stdin: In one line, give reported Toxicity at 30 mg/kg of the entry `CN(C)Cc1ccc2c(Cl)cc(I)c(O)c2n1` .
stdout: 1 day, 3/4 deaths

stdin: In one line, give reported Toxicity at 30 mg/kg of the entry `O=c1[nH]cnc2c(O)c(Cl)cc(Cl)c12` .
stdout: 3 days, none

stdin: In one line, give reported Toxicity at 30 mg/kg of the entry `O=C(O)CCCn1cnc2c(O)c(Cl)cc(Cl)c2c1=O` .
stdout: 10 days, none

stdin: In one line, give reported Toxicity at 30 mg/kg of the entry `O=C(NCc1ccccc1)c1cnc2c(O)cccn2c1=O` .
stdout: 10 days, none

stdin: In one line, give reported Toxicity at 30 mg/kg of the entry `CCCn1cnc2c(O)c(I)ccc2c1=O` .
stdout: 10 days, none

stdin: In one line, give reported Toxicity at 30 mg/kg of the entry `O=c1c2c(Cl)cc(Cl)c(O)c2ncn1-c1ccc2[nH]ncc2c1` .
stdout: 10 days, none
